# Test system: COLO 205 colon
# EXPERIMENT_NOTES: NCI-60 one-dose screen, 48 h (100 = growth as untreated, 0 = no growth, -100 = all killed)
# ASSAY_SETUP: 10 µM unless noted
Compounds without any hit were thinned out: in the full panel of roughly 83,000, 20% have a hit.
PROPERTY: growth (%)
Only the number, expressed in %, is required.

COMPOUND	SYSTEM	UNIT_STRING	MEASURED_VALUE
Oc1ccc(CCCCCCc2ccc(O)cc2)cc1	COLO 205 colon	%	103
O=C(Nc1cccc(Cl)c1)Nc1cc(C(F)(F)F)ccc1Cl	COLO 205 colon	%	-28.2
CCCCc1n(Cc2ccc3ccccc3n2)cc[n+]1Cc1ccc2ccccc2n1	COLO 205 colon	%	-34.4
COc1ccc2[nH]c(C(=O)OCc3ccc4c(Br)cc(Br)c(O)c4n3)cc2c1	COLO 205 colon	%	-80.2
CNC(=O)c1cc(Oc2ccc(NC(=O)c3nc(S(C)(=O)=O)sc3-c3ccc(F)cc3)cc2)ccn1	COLO 205 colon	%	69.1

Shifting focus to the compound that follows.
Consider the compound shown here: "Nc1c(C(=O)Nc2cccc(Cl)c2)sc2ncc(Br)cc12" What is its recorded growth?
85.1
